system.tested: PTPα (Homo sapiens, UniProt P18433)
measured.parameter: IC50

Value sought: IC50, system PTPα (Homo sapiens, UniProt P18433), item CC(C)(O)CCOc1ccc2cc(O)c(N3CC(=O)NS3(=O)=O)c(F)c2c1 . Result: > 20 µM

###

system.tested: PTPε (Homo sapiens, UniProt P23469)
Sequence (P23469 107-697): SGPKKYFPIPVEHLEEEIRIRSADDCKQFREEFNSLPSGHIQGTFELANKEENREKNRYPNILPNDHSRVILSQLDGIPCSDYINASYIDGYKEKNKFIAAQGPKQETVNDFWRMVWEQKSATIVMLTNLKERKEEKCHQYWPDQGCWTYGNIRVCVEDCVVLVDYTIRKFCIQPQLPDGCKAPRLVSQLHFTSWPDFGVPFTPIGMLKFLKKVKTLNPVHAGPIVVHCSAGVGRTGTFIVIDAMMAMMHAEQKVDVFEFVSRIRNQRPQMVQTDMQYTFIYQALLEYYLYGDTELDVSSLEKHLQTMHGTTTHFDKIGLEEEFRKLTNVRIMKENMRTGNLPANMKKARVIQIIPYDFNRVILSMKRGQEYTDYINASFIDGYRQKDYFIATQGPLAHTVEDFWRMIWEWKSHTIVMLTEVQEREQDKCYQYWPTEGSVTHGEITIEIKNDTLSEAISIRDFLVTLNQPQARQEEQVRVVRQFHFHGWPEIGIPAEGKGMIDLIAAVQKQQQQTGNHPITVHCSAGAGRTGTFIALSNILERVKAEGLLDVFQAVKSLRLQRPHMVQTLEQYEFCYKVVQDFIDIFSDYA
measured.parameter: IC50 (µM)
Give a bare numeral; the unit µM is implied.

# CC(C)(O)CCOc1ccc2cc(O)c(N3CC(=O)NS3(=O)=O)c(F)c2c1 with PTPε (Homo sapiens, UniProt P23469): IC50 is 0.8

###

system.tested: SHP-2 (Homo sapiens)
Sequence (Q06124 224-528): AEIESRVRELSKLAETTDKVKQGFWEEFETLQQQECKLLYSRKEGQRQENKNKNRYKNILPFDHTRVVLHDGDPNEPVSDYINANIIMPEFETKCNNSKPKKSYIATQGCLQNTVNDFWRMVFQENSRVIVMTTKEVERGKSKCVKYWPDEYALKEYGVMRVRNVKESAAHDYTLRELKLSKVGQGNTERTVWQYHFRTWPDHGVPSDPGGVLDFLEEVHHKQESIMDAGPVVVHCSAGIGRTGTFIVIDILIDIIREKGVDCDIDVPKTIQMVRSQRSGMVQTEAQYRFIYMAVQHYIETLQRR
measured.parameter: IC50 (µM)
Numeric answer only, unit µM assumed.

get_value(item= CC(C)(O)CCOc1ccc2cc(O)c(N3CC(=O)NS3(=O)=O)c(F)c2c1 , readout=IC50) returns 19.2

All figures here come from paper PMC10374545.
